# procedure_summary: gradient 5% acetonitrile 3 min, to 50% in 2 min, to 85% in 15 min, held 3 min, 100 µL/min
# study_conditions: column: Zorbax Extend-C18 2.1 x 50 mm; eluents: water / acetonitrile, 0.1% formic acid
RP-LC retention time under 700 s gets true, anything at or over 700 s gets false.

1. CCCC(=O)NC1CCN(c2ccc(C)c(C)c2)C1=O (configuration not stated) : false
2. O=C(CNS(=O)(=O)Cc1ccccc1)N1CCOC(c2ccccc2)C1 (configuration not stated) : false
3. O=C(NC1CCN(c2cc(-c3ccc(Cl)cc3)[nH]n2)CC1)c1ccc2nc[nH]c2c1 : true
4. CCOC(=O)CNc1nc(-c2cccc([N+](=O)[O-])c2)nc2ccccc12 : false
5. CCCNC(=O)C1CCCN(c2ccc(SCC(=O)Nc3ccc(Cl)cc3F)nn2)C1 (configuration not stated) : false

Please state whether RP-LC retention time is below 700 s for O=[N+]([O-])c1ccccc1S(=O)(=O)c1ccccc1[N+](=O)[O-]
false

is_below(RP-LC retention time, 700 s) for O=[N+]([O-])c1cccc(CSc2ccc3nnc(-c4cccs4)n3n2)c1 ?
false

RP-LC retention time under 700 s? Item: O=C(NCC(c1ccsc1)N1CCCCCC1)C(=O)Nc1ccc2c(c1)OCCO2 (configuration not stated)
true

RP-LC retention time under 700 s? Item: COc1ccc2nc(C(=O)NCc3ccccc3Br)cn2n1
false

Consider the compound Cc1cc(=O)n(CC(=O)NCc2ccccc2Br)c(N2CCc3ccccc3C2)n1 . Is its RP-LC retention time strictly less than 700 s?
false

Given Cc1cc(N2CCN(C(=O)Nc3cccc(C(F)(F)F)c3)CC2)nc(N2CCOCC2)n1 , is recorded RP-LC retention time strictly lower than 700 s?
true

I'd appreciate it if you could check whether Cc1nc(S(=O)(=O)N2CCC(C(=O)N3CCN(c4ccc(Cl)cc4)CC3)CC2)cn1C has RP-LC retention time smaller than 700 s.
false

----------
# procedure_summary: gradient 5% acetonitrile 3 min, to 50% in 2 min, to 85% in 15 min, held 3 min, 100 µL/min
# study_conditions: column: Zorbax Extend-C18 2.1 x 50 mm; eluents: water / acetonitrile, 0.1% formic acid
measure_name: RP-LC retention time (s)
Numbers only, in s.

Example cases with answers are listed next.
1) CCOC(=O)c1csc(NC(=O)c2ccc3c(c2)OCCO3)n1 : 782
2) COc1cc(NC(=O)c2csc(-c3cn(C)c4ncccc34)n2)cc(OC)c1 : 1010
3) Cn1c(=O)c(N2CCC(C(=O)NCCN3CCCCCC3)CC2)nc2cccnc21 : 611
4) O=C(NCCc1ccco1)c1c(-c2ccccc2)nnc2ccccc12 : 784
5) CCOc1ccc(-c2noc(-c3nn(-c4ccccc4)ccc3=O)n2)cc1 : 919
6) O=C(Cn1cc(C(=O)C(=O)N2CCOCC2)c2ccccc21)NCc1ccc2c(c1)OCCCO2 : 704

# per-item lookup of RP-LC retention time; items listed below
1. CCc1cc(C(=O)Nc2cc(Cl)ccc2OC)nc2ccnn12
2. CCn1c(-c2ccccc2)cc(C(N)=O)c1C
3. Cc1ccccc1NC(=O)COc1cccc2c(=O)n(C)ccc12
4. O=C(C1CC1)N1CCN(c2nc(CN3CCCCCC3)cs2)CC1
5. CCn1cc(-c2nc(C)c(C(=O)NCc3ccc4c(c3)OCO4)s2)c2cccnc21
6. CCC(=O)N(CCC1CCOC(C)(C)C1)Cc1ccc(OC)cc1 (stereo unspecified)

1: 1210; 2: 591; 3: 758; 4: 1100; 5: 925; 6: 896

// each listed compound needs a value for RP-LC retention time
1. Cc1ccc(C)c(NS(=O)(=O)c2cc3n(c2)CCN(CC(C)C)C3=O)c1
2. CCCCCn1c(=O)c2ccccc2n(Cc2nc(-c3cc(OC)cc(OC)c3)no2)c1=O
3. Fc1ccc(C2Cn3nnc(-c4nc(-c5ccccn5)no4)c3CO2)cc1 (stereo unspecified)
4. NC(=O)c1oc2ccccc2c1NC(=O)c1cc(=O)c2ccccc2o1

[848, 1270, 854, 805]

Cited source for all entries: the METLIN SMRT retention time set (Domingo-Almenara et al. 2019)
